What follows is a record of Kd for Serine/threonine-protein kinase Nek2 (Homo sapiens).
Activity calls are given as the source filed them.

Ask | Fill blank: measured Kd of the compound CCN1CCN(Cc2ccc(Nc3ncc(F)c(-c4cc(F)c5nc(C)n(C(C)C)c5c4)n3)nc2)CC1 [ABEMACICLIB] is ____.
Reply | > 30 µM (inactive)

Ask | Fill blank: measured Kd of the compound CNC(=O)c1cc(COc2nnc(Nc3ccc(Cl)cc3)c3ccoc23)ccn1 [TELATINIB] is ____.
Reply | > 30 µM (inactive)

Ask | Fill blank: measured Kd of the compound Cc1c(NC(=O)OC[C@@H]2COCCN2)cn2ncnc(Nc3ccc4c(cnn4Cc4cccc(F)c4)c3)c12 [AC-480] is ____.
Reply | > 30 µM (inactive)

Ask | Fill blank: measured Kd of the compound COc1cc(Nc2ncc(F)c(Nc3ccc4c(n3)N(COP(=O)(O)O)C(=O)C(C)(C)O4)n2)cc(OC)c1OC [FOSTAMATINIB] is ____.
Reply | > 30 µM (inactive)

Ask | Fill blank: measured Kd of the compound CNC(=O)c1ccc(Nc2ncc(C(F)(F)F)c(NCc3nccnc3N(C)S(C)(=O)=O)n2)cc1 [DEFACTINIB] is ____.
Reply | > 30 µM (inactive)

Ask | Fill blank: measured Kd of the compound NC[C@@](O)(c1ccc(Cl)cc1)c1ccc(-c2cn[nH]c2)cc1 [AT-13148] is ____.
Reply | > 30 µM (inactive)

Ask | Fill blank: measured Kd of the compound CN1CCN(c2nc(C3=C(c4c[nH]c5ccccc45)C(=O)NC3=O)c3ccccc3n2)CC1 [SOTRASTAURIN] is ____.
Reply | > 30 µM (inactive)

Ask | Fill blank: measured Kd of the compound COc1cccc2cc(-c3nc([C@H]4CC[C@H](C(=O)O)CC4)n4ncnc(N)c34)[nH]c12 [OSI-027] is ____.
Reply | > 30 µM (inactive)

Ask | Fill blank: measured Kd of the compound COc1cc2ncnc(Nc3ccc(F)c(Cl)c3)c2cc1NC(=O)/C=C/CN1CCCCC1 [DACOMITINIB ANHYDROUS] is ____.
Reply | > 30 µM (inactive)

Ask | Fill blank: measured Kd of the compound CC(C)(O)CC(=O)NCCn1ccc2ncnc(Nc3ccc(Oc4cccc(C(F)(F)F)c4)c(Cl)c3)c21 [TAK-285] is ____.
Reply | > 30 µM (inactive)

Ask | Fill blank: measured Kd of the compound COc1cc2ncnc(Nc3ccc(O)cc3)c2cc1OC [WHI-P131] is ____.
Reply | > 30 µM (inactive)

Ask | Fill blank: measured Kd of the compound O[C@H]1CC[C@H](Nc2ncc3nc(Nc4c(F)cc(F)cc4F)n([C@H]4CCOC4)c3n2)CC1 [TANZISERTIB] is ____.
Reply | > 30 µM (inactive)

Ask | Fill blank: measured Kd of the compound Cn1cc(-c2[nH]c3cc(NC(=O)[C@H](N)C4CCCCC4)cc4c3c2C=NNC4=O)cn1 is ____.
Reply | > 30 µM (inactive)

Ask | Fill blank: measured Kd of the compound CC[C@@](C)(Nc1ccnc(-c2c[nH]c3ncccc23)n1)C(=O)NCC(F)(F)F [DECERNOTINIB] is ____.
Reply | > 30 µM (inactive)

Ask | Fill blank: measured Kd of the compound COc1ccc2c(OCc3nnc4ccc(-c5ccccc5)nn34)ccnc2c1 [AMG-208] is ____.
Reply | > 30 µM (inactive)

Ask | Fill blank: measured Kd of the compound CC1(COc2ccc3c(c2)ncn3-c2ccc3cccc(N4CCC(N)CC4)c3n2)COC1 [CRENOLANIB] is ____.
Reply | > 30 µM (inactive)

====

# tgt: UniProt:P07947
# Sequence (P07947 whole entry): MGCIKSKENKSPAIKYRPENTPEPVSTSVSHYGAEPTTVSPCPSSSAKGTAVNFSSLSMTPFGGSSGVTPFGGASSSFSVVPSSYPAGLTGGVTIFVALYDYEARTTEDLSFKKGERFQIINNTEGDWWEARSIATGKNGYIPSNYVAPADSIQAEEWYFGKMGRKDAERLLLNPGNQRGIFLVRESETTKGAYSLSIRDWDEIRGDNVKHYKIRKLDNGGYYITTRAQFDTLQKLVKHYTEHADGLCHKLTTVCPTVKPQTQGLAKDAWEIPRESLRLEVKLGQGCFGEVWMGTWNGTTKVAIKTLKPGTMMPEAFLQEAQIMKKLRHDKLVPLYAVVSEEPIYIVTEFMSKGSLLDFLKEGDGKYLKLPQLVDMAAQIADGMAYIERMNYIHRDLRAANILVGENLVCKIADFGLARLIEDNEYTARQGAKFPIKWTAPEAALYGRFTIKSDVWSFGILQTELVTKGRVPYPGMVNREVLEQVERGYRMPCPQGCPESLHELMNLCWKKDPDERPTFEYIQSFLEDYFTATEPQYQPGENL
The source made the active and inactive calls.
Choose the fitting class; nothing outside class 1 for active, class 0 for inactive is accepted.

Ask | State the result this test recorded for Cn1c(=O)c(F)c(Nc2ccc(I)cc2F)c2c(=O)n(C[C@@H](O)CO)cnc21 .
Reply | class 0

Ask | State the result this test recorded for COc1cc2ncnc3c2cc1OCCCCCN(C)Cc1ccc(Br)cc1N3 .
Reply | class 0

Ask | State the result this test recorded for Cn1c(=O)n(-c2ccc(C(C)(C)C#N)cc2)c2c3cc(-c4cnc5ccccc5c4)ccc3ncc21 .
Reply | class 0

Ask | State the result this test recorded for O=S(=O)(c1cccc2c(O)nccc12)N1CCCNCC1 [HYDROXYFASUDIL] .
Reply | class 0

Ask | State the result this test recorded for Cn1cc(-c2[nH]c3cc(NC(=O)[C@H](N)C4CCCCC4)cc4c3c2C=NNC4=O)cn1 .
Reply | class 1

Ask | State the result this test recorded for Cc1ccc(C(=O)Nc2ccc(Oc3cc4cnn(C)c4cc3-c3cn[nH]c3)c(F)c2)c(=O)n1-c1ccc(F)cc1 .
Reply | class 0

Ask | State the result this test recorded for O=C(NOC[C@H](O)CO)c1ccc(F)c(F)c1Nc1ccc(I)cc1F .
Reply | class 0

Ask | State the result this test recorded for CC1(COc2ccc3c(c2)ncn3-c2ccc3cccc(N4CCC(N)CC4)c3n2)COC1 .
Reply | class 0

====

What follows is a record of Kd for Serine/threonine-protein kinase pim-2 (Homo sapiens, UniProt Q9P1W9).
The source made the active and inactive calls.

Known results for compounds:
>>> readout_value("C=CC(=O)Nc1cccc(Nc2nc(Nc3ccc(N4CCN(C(C)=O)CC4)cc3OC)ncc2C(F)(F)F)c1")
"> 30 µM (inactive)"
>>> readout_value("Cc1c(NC(=O)OC[C@@H]2COCCN2)cn2ncnc(Nc3ccc4c(cnn4Cc4cccc(F)c4)c3)c12")
"> 30 µM (inactive)"
>>> readout_value("O=C(NOC[C@H](O)CO)c1ccc(F)c(F)c1Nc1ccc(I)cc1F")
"> 30 µM (inactive)"
>>> readout_value("CNC(=O)c1cc(COc2nnc(Nc3ccc(Cl)cc3)c3ccoc23)ccn1")
"> 30 µM (inactive)"
>>> readout_value("FC(F)(F)c1ccc(CNc2ccc(Cc3c[nH]c4ncc(Cl)cc34)cn2)cn1")
"> 30 µM (inactive)"
>>> readout_value("C[C@@H]1COC(Nc2ccc3ncnc(Nc4ccc(OCc5nccs5)c(Cl)c4)c3c2)=N1")
"> 30 µM (inactive)"

Switching to the query record.
Ask | Item Cc1cc(C(=O)Nc2cc(Oc3ccc4nc(NC(=O)C5CC5)cn4n3)ccc2C)n(C)n1 with Serine/threonine-protein kinase pim-2 (Homo sapiens, UniProt Q9P1W9) - Kd?
Reply | > 30 µM (inactive)

====

# tgt: Serine/threonine-protein kinase D2 (Homo sapiens)
# Sequence (Q9BZL6 whole entry): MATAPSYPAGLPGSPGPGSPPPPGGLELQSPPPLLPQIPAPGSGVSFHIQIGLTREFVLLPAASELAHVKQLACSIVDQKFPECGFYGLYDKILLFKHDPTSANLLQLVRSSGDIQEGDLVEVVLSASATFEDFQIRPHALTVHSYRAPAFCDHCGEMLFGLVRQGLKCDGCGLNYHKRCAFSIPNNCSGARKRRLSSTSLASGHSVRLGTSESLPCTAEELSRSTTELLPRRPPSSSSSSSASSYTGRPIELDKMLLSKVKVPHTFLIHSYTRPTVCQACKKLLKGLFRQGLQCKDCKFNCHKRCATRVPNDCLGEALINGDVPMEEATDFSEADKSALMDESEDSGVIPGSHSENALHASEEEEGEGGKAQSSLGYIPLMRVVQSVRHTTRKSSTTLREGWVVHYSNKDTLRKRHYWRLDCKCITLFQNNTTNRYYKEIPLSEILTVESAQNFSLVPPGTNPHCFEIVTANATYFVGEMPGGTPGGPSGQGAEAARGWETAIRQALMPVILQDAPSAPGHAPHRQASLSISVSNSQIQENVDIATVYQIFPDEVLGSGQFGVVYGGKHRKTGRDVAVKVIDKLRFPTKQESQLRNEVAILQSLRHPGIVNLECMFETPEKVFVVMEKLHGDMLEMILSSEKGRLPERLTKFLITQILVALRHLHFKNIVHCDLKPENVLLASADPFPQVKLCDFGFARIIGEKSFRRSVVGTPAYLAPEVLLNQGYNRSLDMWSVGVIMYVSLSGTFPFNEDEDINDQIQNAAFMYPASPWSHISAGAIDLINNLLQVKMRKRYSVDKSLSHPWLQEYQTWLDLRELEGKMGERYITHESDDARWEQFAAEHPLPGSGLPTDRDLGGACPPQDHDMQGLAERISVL
Active and inactive are the calls of the source.
Choose the fitting class; nothing outside active, inactive is accepted.

Take a look at these entries with their results.
>>> classification("C=CC(=O)Nc1cccc(Nc2nc(Nc3ccc(N4CCN(C(C)=O)CC4)cc3OC)ncc2C(F)(F)F)c1")
"inactive"
>>> classification("CC(C)CC(=O)Nc1[nH]nc2c1CN(C(=O)C1CCN(C)CC1)C2(C)C")
"active"
>>> classification("Cc1c(Cn2c(C)nc3c(C(=O)O)cc(N4CCOCC4)cc32)cccc1C(F)(F)F")
"inactive"

Ask | State the result this test recorded for CNC(=O)c1cc(COc2nnc(Nc3ccc(Cl)cc3)c3ccoc23)ccn1 .
Reply | inactive

Ask | State the result this test recorded for COc1cccc(Nc2ncnn3ccc(CN4CC[C@@H](N)[C@H](O)C4)c23)c1 .
Reply | active

Ask | State the result this test recorded for Cn1c(=O)c(F)c(Nc2ccc(I)cc2F)c2c(=O)n(C[C@@H](O)CO)cnc21 .
Reply | inactive

Ask | State the result this test recorded for CCOc1ccn(-c2ccc(F)cc2)c(=O)c1C(=O)Nc1ccc(Oc2ccnc(N)c2Cl)c(F)c1 .
Reply | inactive

Ask | State the result this test recorded for O=C(NC[C@H](O)CO)c1ccncc1Nc1ccc(I)cc1F .
Reply | inactive

Ask | State the result this test recorded for c1cc(OCCN2CCCCC2)cc(-c2n[nH]c3ccc(-c4nc[nH]n4)cc23)c1 .
Reply | active

====

What follows is a record of Kd for Serine/threonine-protein kinase N2 (Homo sapiens, UniProt Q16513).
Activity calls are given as the source filed them.

Known results for compounds:
>>> readout_value("C=CC(=O)Nc1cc(Nc2nccc(-c3cn(C)c4ccccc34)n2)c(OC)cc1N(C)CCN(C)C [OSIMERTINIB]")
"> 30 µM (inactive)"
>>> readout_value("NC[C@@](O)(c1ccc(Cl)cc1)c1ccc(-c2cn[nH]c2)cc1 [AT-13148]")
"0.009 µM (active)"
>>> readout_value("FC(F)(F)c1ccc(CNc2ccc(Cc3c[nH]c4ncc(Cl)cc34)cn2)cn1 [PEXIDARTINIB]")
"> 30 µM (inactive)"
>>> readout_value("C=CCN(/C=C1/C(=O)O[C@H](COC)[C@@]2(C)C1=C(O)C(=O)C1=C2[C@H](OC(C)=O)C[C@]2(C)C(=O)CC[C@@H]12)CC=C [SONOLISIB]")
"> 30 µM (inactive)"
>>> readout_value("COc1cc2ncnc(Nc3ccc(F)c(Cl)c3)c2cc1NC(=O)/C=C/CN1CCCCC1 [DACOMITINIB ANHYDROUS]")
"> 30 µM (inactive)"
>>> readout_value("COc1cc2ncnc(Nc3ccc(O)cc3)c2cc1OC [WHI-P131]")
"> 30 µM (inactive)"
>>> readout_value("C#Cc1cccc(Nc2ncnc3cc4c(cc23)OCCOCCOCCO4)c1 [ICOTINIB]")
"> 30 µM (inactive)"
>>> readout_value("COc1ccc(-c2ccc3ncc4c(c3c2)n(-c2ccc(N3CCNCC3)c(C(F)(F)F)c2)c(=O)n4C)cn1 [BGT-226 FREE BASE]")
"> 30 µM (inactive)"

Switching to the query record.
Ask | Item COCCN1CCN(Cc2ccc(-c3n[nH]c4c3C(=O)c3c(NC(=O)NN5CCOCC5)cccc3-4)cc2)CC1 [RGB-286638] with Serine/threonine-protein kinase N2 (Homo sapiens, UniProt Q16513) - Kd?
Reply | > 30 µM (inactive)

Entry source: ChEMBL document CHEMBL3991601
